Recorded values, source patent US12391676B2.

Observed IC50, system BRD4 (Homo sapiens (Human), UniProt O60885).

# COMPOUND, OUTPUT_UNIT, IC50
data = [
    ("Cc1cnc(Nc2ccc(C3CCN(C)CC3)c(F)c2)nc1Nc1ccc(Cl)c(NS(=O)(=O)C(C)(C)C)c1 [MA9-060]", "nM", 26),
    ("Cc1cnc(Nc2ccc(C3CCN(C)CC3)c(F)c2)nc1Nc1ccc2c(c1)N(S(=O)(=O)C(C)(C)C)CC2 [MA9-086]", "nM", 6.4),
    ("Cc1cnc(Nc2ccc(C3CCN(C)CC3)c(F)c2)nc1Nc1cccc(NS(=O)(=O)C(C)(C)C)c1 [SY3-038]", "nM", 87),
]
